# merged literature set: pIC50 with Pancreatic alpha-amylase (Sus scrofa)
pIC50: −log10 of the molar value.

Below: 2 molecules and their reported pIC50.
COc1cc(C)c2c(=O)c3c(O)cc(OC)cc3oc2c1
< 3.00
Cc1onc(-c2ccc(F)cc2)c1C(=O)Nc1ccc(C(C)(C)C)cc1
< 2.85

Lookup: # get_value(readout= pIC50, system= Pancreatic alpha-amylase (Sus scrofa)) for Cc1ccc2c(c1)COC(c1c(C)[nH]c3ccccc13)N2 (stereo not drawn)
Found: < 4.00
